target: Matrilysin (Homo sapiens) (UniProt P09237); experiment: In vitro inhibition of MMP-7 at 2 uM.
Sequence (P09237 whole entry): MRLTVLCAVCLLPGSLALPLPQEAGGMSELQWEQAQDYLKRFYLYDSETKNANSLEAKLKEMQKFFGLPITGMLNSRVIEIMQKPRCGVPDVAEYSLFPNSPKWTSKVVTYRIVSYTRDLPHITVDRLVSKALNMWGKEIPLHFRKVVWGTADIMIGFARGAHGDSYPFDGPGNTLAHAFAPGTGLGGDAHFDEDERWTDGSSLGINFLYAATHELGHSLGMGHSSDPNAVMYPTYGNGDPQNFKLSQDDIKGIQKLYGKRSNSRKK
# if value of inhibition reaches 7%, tag Met; if it stays below, tag Not met

Here's what some known entries look like.
>>> label("CC(NC(=O)OCc1ccccc1)P(=O)(O)CC(CCCc1ccccc1)C(=O)NC(Cc1c[nH]c2ccccc12)C(N)=O (centres undefined)")
"Not met"
>>> label("NC(=O)C(Cc1c[nH]c2ccccc12)NC(=O)C(CCCc1ccccc1)CP(=O)(O)C(Cc1ccccc1)NC(=O)c1cc2cc(Cl)cc(Cl)c2oc1=O (centres undefined)")
"Met"
>>> label("NC(=O)C(Cc1c[nH]c2ccccc12)NC(=O)C(COCc1ccccc1)CP(=O)(O)C(Cc1ccccc1)NC(=O)OCc1ccccc1 (centres undefined)")
"Not met"
>>> label("CC(NC(=O)OCc1ccccc1)P(=O)(O)CC(CSCc1ccccc1)C(=O)NC(Cc1c[nH]c2ccccc12)C(N)=O (centres undefined)")
"Not met"
>>> label("CC(NC(=O)OCc1ccccc1)P(=O)(O)CC(CCc1ccccc1)C(=O)NC(Cc1c[nH]c2ccccc12)C(N)=O (centres undefined)")
"Not met"
>>> label("COc1ccc(CSCC(CP(=O)(O)C(Cc2ccccc2)NC(=O)OCc2ccccc2)C(=O)NC(Cc2c[nH]c3ccccc23)C(N)=O)cc1 (centres undefined)")
"Met"
>>> label("NC(=O)C(Cc1c[nH]c2ccccc12)NC(=O)C(CCCc1ccccc1)CP(=O)(O)C(Cc1ccccc1)NC(=O)CNc1cc(Cl)ccc1O (centres undefined)")
"Met"
>>> label("CC(NC(=O)OCc1ccccc1)P(=O)(O)CC(Cc1ccccc1)C(=O)NC(Cc1c[nH]c2ccccc12)C(N)=O (centres undefined)")
"Met"

Query string: Textbook exercise: given the entry NC(=O)[C@@H](Cc1c[nH]c2ccccc12)NC(=O)C(CCCc1ccccc1)CP(=O)(O)C(Cc1ccccc1)NC(=O)OCc1ccccc1 (some centres undefined) , state whether its inhibition is greater than or equal to 7%.
Result string: Met

Query string: Textbook exercise: given the entry NC(=O)C(Cc1c[nH]c2ccccc12)NC(=O)C(CCCc1ccccc1)CP(=O)(O)C(Cc1ccccc1)NC(=O)CNc1ccccc1 (centres undefined) , state whether its inhibition is greater than or equal to 7%.
Result string: Met

Query string: Textbook exercise: given the entry NC(=O)[C@H](Cc1c[nH]c2ccccc12)NC(=O)C(CCCc1ccccc1)CP(=O)(O)C(Cc1ccccc1)NC(=O)OCc1ccccc1 (some centres undefined) , state whether its inhibition is greater than or equal to 7%.
Result string: Not met

Query string: Textbook exercise: given the entry NC(=O)C(Cc1c[nH]c2ccccc12)NC(=O)C(CCCc1ccccc1)CP(=O)(O)C(Cc1ccccc1)NC(=O)COCc1ccccc1 (centres undefined) , state whether its inhibition is greater than or equal to 7%.
Result string: Met

* * *

target: Matrix metalloproteinase-9 (Homo sapiens)
Sequence (P14780 whole entry): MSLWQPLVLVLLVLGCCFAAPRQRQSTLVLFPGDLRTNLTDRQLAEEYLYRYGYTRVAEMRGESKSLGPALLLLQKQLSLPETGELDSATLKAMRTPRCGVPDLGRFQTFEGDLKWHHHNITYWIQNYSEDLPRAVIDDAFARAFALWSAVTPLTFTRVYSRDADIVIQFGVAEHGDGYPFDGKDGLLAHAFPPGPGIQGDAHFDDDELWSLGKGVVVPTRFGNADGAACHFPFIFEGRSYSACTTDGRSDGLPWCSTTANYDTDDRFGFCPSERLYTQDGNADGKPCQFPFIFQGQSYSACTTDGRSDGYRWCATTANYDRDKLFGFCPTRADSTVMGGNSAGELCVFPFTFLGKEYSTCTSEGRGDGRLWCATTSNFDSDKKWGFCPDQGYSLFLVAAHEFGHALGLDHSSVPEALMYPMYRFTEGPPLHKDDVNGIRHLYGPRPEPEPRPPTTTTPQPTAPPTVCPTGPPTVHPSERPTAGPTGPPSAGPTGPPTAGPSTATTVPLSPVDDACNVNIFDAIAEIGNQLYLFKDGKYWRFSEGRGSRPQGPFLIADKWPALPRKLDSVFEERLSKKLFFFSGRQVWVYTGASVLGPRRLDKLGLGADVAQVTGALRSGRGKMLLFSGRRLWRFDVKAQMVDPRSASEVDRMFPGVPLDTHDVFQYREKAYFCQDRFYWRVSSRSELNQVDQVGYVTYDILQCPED
MEASUREMENT LABEL: pKi
The meaning of pKi here: minus log10 of the concentration in molar units.

According to the records, this molecule COc1ccc(CSCC(CP(=O)(O)C(Cc2ccccc2)NC(=O)OCc2ccccc2)C(=O)NC(Cc2c[nH]c3ccccc23)C(N)=O)cc1 (stereo not given) displays pKi of 8.52

According to the records, this molecule CCCCCCCC(CP(=O)(O)C(Cc1ccccc1)NC(=O)OCc1ccccc1)C(=O)NC(Cc1c[nH]c2ccccc12)C(N)=O (stereo not given) displays pKi of 7.52

According to the records, this molecule NC(=O)C(Cc1c[nH]c2ccccc12)NC(=O)C(CCCc1ccccc1)CP(=O)(O)C(Cc1ccccc1)NC(=O)CNc1cc(Cl)ccc1O (stereo not given) displays pKi of 7.47

According to the records, this molecule NC(=O)C(Cc1c[nH]c2ccccc12)NC(=O)C(CCCc1ccccc1)CP(=O)(O)C(Cc1ccccc1)NC(=O)c1cc2cc(Cl)cc(Cl)c2oc1=O (stereo not given) displays pKi of 6.96

According to the records, this molecule NC(=O)C(Cc1c[nH]c2ccccc12)NC(=O)C(CCCc1ccccc1)CP(=O)(O)C(Cc1ccccc1)NC(=O)c1ccc2ccccc2n1 (stereo not given) displays pKi of 7.89

* * *

target: Stromelysin-3 (Mus musculus, UniProt Q02853); assay: Binding affinity against matrix metalloprotease-11.
Sequence (Q02853 whole entry): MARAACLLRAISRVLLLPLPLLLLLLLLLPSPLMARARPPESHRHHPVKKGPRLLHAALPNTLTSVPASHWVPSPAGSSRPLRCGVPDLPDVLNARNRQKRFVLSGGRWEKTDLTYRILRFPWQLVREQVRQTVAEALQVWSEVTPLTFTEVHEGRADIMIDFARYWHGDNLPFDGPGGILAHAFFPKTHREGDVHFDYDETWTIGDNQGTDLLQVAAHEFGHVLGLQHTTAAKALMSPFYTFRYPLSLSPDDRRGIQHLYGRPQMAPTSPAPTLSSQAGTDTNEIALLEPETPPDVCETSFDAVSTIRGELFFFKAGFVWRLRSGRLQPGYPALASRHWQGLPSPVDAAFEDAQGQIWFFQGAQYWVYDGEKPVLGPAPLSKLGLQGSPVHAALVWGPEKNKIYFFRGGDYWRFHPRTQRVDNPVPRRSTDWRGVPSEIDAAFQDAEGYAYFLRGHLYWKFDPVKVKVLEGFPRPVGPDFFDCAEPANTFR
Listed here: items and their measured Ki.
Give the value in nM but do not write nM after it.

>>> experimental_value("CC(C)CC(NC(=O)OCc1ccccc1)C(=O)NC(Cc1ccccc1)P(=O)(O)CC(CCCc1ccccc1)C(=O)NC(Cc1c[nH]c2ccccc12)C(N)=O (stereo unspecified)")
6

According to the records, this compound NC(=O)C(Cc1c[nH]c2ccccc12)NC(=O)C(CCCCc1ccccc1)CP(=O)(O)C(Cc1ccccc1)NC(=O)OCc1ccccc1 (stereo unspecified) displays Ki of 33

According to the records, this compound NC(=O)C(Cc1c[nH]c2ccccc12)NC(=O)C(CCCc1ccccc1)CP(=O)(O)C(Cc1ccccc1)NC(=O)c1ccc2ccccc2n1 (stereo unspecified) displays Ki of 4.2

According to the records, this compound NC(=O)C(Cc1c[nH]c2ccccc12)NC(=O)C(CCCc1ccccc1)CP(=O)(O)C(Cc1ccccc1)NC(=O)c1cc2cc(Cl)cc(Cl)c2oc1=O (stereo unspecified) displays Ki of 5

According to the records, this compound COc1ccc(CSCC(CP(=O)(O)C(Cc2ccccc2)NC(=O)OCc2ccccc2)C(=O)NC(Cc2c[nH]c3ccccc23)C(N)=O)cc1 (stereo unspecified) displays Ki of 2

According to the records, this compound NC(=O)C(Cc1c[nH]c2ccccc12)NC(=O)C(Cc1ccc2ccccc2c1)CP(=O)(O)C(Cc1ccccc1)NC(=O)OCc1ccccc1 (stereo unspecified) displays Ki of 74

* * *

Listed here: items and their measured Ki.
biological target: Matrilysin (Homo sapiens, UniProt P09237)
Sequence (P09237 whole entry): as the sequence (P09237 whole entry) above
Give the value in nM but do not write nM after it.

>>> experimental_value("CC(C)CC(CP(=O)(O)C(Cc1ccccc1)NC(=O)OCc1ccccc1)C(=O)NC(Cc1c[nH]c2ccccc12)C(N)=O (configuration not stated)")
210

As a next step, examine the compound that follows.
Summary line: NC(=O)C(Cc1c[nH]c2ccccc12)NC(=O)C(CCc1ccc2ccccc2c1)CP(=O)(O)C(Cc1ccccc1)NC(=O)OCc1ccccc1 (configuration not stated) , Matrilysin (Homo sapiens, UniProt P09237), reported Ki = 2100

* * *

The next entries give measured pKi for Matrix metalloproteinase-14 (Homo sapiens, UniProt P50281).
The meaning of pKi here: minus log10 of the concentration in molar units.

Summary line: NC(=O)[C@@H](Cc1c[nH]c2ccccc12)NC(=O)C(CCCc1ccccc1)CP(=O)(O)C(Cc1ccccc1)NC(=O)OCc1ccccc1 (some centres not stated) , Matrix metalloproteinase-14 (Homo sapiens, UniProt P50281), reported pKi = 6.98

Summary line: NC(=O)C(Cc1c[nH]c2ccccc12)NC(=O)C(CCCCc1ccccc1)CP(=O)(O)C(Cc1ccccc1)NC(=O)OCc1ccccc1 (configuration not stated) , Matrix metalloproteinase-14 (Homo sapiens, UniProt P50281), reported pKi = 6.24

* * *

Listed here: items and their measured inhibition.
molecular target: Interstitial collagenase (Homo sapiens) (UniProt P03956); test: In vitro inhibition of MMP-1 at 2 uM.
Sequence (P03956 whole entry): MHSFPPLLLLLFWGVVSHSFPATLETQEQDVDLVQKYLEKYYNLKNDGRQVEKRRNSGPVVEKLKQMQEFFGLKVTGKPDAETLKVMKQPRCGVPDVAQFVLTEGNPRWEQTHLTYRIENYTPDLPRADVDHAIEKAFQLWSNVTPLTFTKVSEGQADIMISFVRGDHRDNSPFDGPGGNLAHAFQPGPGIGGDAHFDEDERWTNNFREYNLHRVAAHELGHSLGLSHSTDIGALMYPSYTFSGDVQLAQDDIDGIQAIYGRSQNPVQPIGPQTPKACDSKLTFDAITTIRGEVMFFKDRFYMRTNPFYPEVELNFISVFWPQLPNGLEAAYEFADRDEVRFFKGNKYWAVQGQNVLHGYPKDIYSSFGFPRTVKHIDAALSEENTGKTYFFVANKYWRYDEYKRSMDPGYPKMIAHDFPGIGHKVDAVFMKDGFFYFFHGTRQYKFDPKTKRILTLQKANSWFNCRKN
Give the value in % but do not write % after it.

Field: example entries. Status: answers known.
>>> experimental_value("NC(=O)C(Cc1c[nH]c2ccccc12)NC(=O)C(CCCc1ccccc1)CP(=O)(O)C(Cc1ccccc1)NC(=O)CNc1cc(Cl)ccc1O (configuration not stated)")
72
>>> experimental_value("NC(=O)C(Cc1c[nH]c2ccccc12)NC(=O)C(CCCc1ccccc1)CP(=O)(O)C(Cc1ccccc1)NC(=O)CNc1ccccc1 (configuration not stated)")
49
>>> experimental_value("NC(=O)C(Cc1c[nH]c2ccccc12)NC(=O)C(COCc1ccccc1)CP(=O)(O)C(Cc1ccccc1)NC(=O)OCc1ccccc1 (configuration not stated)")
9
>>> experimental_value("CC(NC(=O)OCc1ccccc1)P(=O)(O)CC(CCCc1ccccc1)C(=O)NC(Cc1c[nH]c2ccccc12)C(N)=O (configuration not stated)")
30
>>> experimental_value("NC(=O)C(Cc1c[nH]c2ccccc12)NC(=O)C(CCc1ccc2ccccc2c1)CP(=O)(O)C(Cc1ccccc1)NC(=O)OCc1ccccc1 (configuration not stated)")
0

Summary line: NC(=O)C(Cc1c[nH]c2ccccc12)NC(=O)C(CCCCc1ccccc1)CP(=O)(O)C(Cc1ccccc1)NC(=O)OCc1ccccc1 (configuration not stated) , Interstitial collagenase (Homo sapiens) (UniProt P03956), reported inhibition = 5

Summary line: COc1ccc(CSCC(CP(=O)(O)C(Cc2ccccc2)NC(=O)OCc2ccccc2)C(=O)NC(Cc2c[nH]c3ccccc23)C(N)=O)cc1 (configuration not stated) , Interstitial collagenase (Homo sapiens) (UniProt P03956), reported inhibition = 13

* * *

biological target: Interstitial collagenase (Homo sapiens) (UniProt P03956); test: In vitro inhibition of MMP-1 at 2 uM.
MEASUREMENT LABEL: inhibition (%)
Give the value in % but do not write % after it.

>>> experimental_value("CC(NC(=O)OCc1ccccc1)P(=O)(O)CC(CCc1ccccc1)C(=O)NC(Cc1c[nH]c2ccccc12)C(N)=O (centres undefined)")
23

According to the records, this compound NC(=O)[C@@H](Cc1c[nH]c2ccccc12)NC(=O)C(CCCc1ccccc1)CP(=O)(O)C(Cc1ccccc1)NC(=O)OCc1ccccc1 (some centres undefined) displays inhibition of 23

According to the records, this compound CC(NC(=O)OCc1ccccc1)P(=O)(O)CC(Cc1ccccc1)C(=O)NC(Cc1c[nH]c2ccccc12)C(N)=O (centres undefined) displays inhibition of 24

According to the records, this compound CC(C)CC(CP(=O)(O)C(Cc1ccccc1)NC(=O)OCc1ccccc1)C(=O)NC(Cc1c[nH]c2ccccc12)C(N)=O (centres undefined) displays inhibition of 45

According to the records, this compound CC(NC(=O)OCc1ccccc1)P(=O)(O)CC(COCc1ccccc1)C(=O)NC(Cc1c[nH]c2ccccc12)C(N)=O (centres undefined) displays inhibition of 15

According to the records, this compound CC(NC(=O)OCc1ccccc1)P(=O)(O)CC(CSCc1ccccc1)C(=O)NC(Cc1c[nH]c2ccccc12)C(N)=O (centres undefined) displays inhibition of 45
